meta.source: patent US20040009904A1

target: ACA-6501; assay: Competitive binding peptide ACA ELISA, cardiolipin/β2-GPI-coated plates; parameters: species or system human; details: Optimization of Peptide 3G3; inf = no 50% inhibition
Numbered stars: 1 amine (or outer) side, 2 acyl side, 3 side chain; on linkers, the order of the positions; unused ones are H or OH. Bridge positions count the residues as written; N and C are the ends. Square brackets hold non-standard residues; d marks the D form. Peptide text beside a SMILES is read from it. Abu(4-yl) = O=C([C@H](CC[*:3])N[*:1])[*:2]; Phg = N[C@H](C(=O)O)c1ccccc1; hCys = N[C@@H](CCS)C(=O)O
observedProperty: with ACA 6501 150 ug/mL (µg/mL)

- CC(C)C[C@@H]1NC(=O)[C@H](CCCCN)NC(=O)CNC(=O)[C@H](CC(C)C)NC(=O)[C@@H]2CCCN2C(=O)CNC(=O)[C@H](CC(C)C)NC(=O)[C@@H](N)CSSC[C@@H](C(=O)O)NC1=O [C L G P L G K L C] (H-CLGPLGKLC-OH; disulfide 1-9): 180
- CC(C)C[C@@H]1NC(=O)[C@H](CCCCN)NC(=O)CNC(=O)[C@H](CC(C)C)NC(=O)[C@H](C(C)C)NC(=O)CNC(=O)[C@H](CC(C)C)NC(=O)[C@@H](N)CCSC[C@@H](C(=O)O)NC1=O [LJP 699] (H-[Abu(4-yl)]LGVLGKLC-OH; thioether 1-9): 46
- CC(C)C[C@@H]1NC(=O)[C@H](CCCCN)NC(=O)CNC(=O)[C@H](CC(C)C)NC(=O)[C@H](c2ccccc2)NC(=O)CNC(=O)[C@H](CC(C)C)NC(=O)[C@@H](N)CSSC[C@@H](C(=O)O)NC1=O [C L G pG L G K L C] (H-CLG[Phg]LGKLC-OH; disulfide 1-9): 70
- CC(C)C[C@@H]1NC(=O)[C@H](CCCCN)NC(=O)CNC(=O)[C@H](CC(C)C)NC(=O)[C@H](C(C)C)NC(=O)CNC(=O)[C@H](CC(C)C)NC(=O)[C@@H](N)CCSCC[C@@H](C(=O)O)NC1=O [LJP 703] (H-[hCys]LGVLGKL[Abu(4-yl)]-OH; thioether 1-9; N-terminus and C-terminus assumed): 80

* * *

tested on: ACA; test: Structure Activity Relationship of the Crossreactive ACA Epitope (relative activity); format: binding, human; conditions: LJP 688 = 100
observedProperty: Relative Activity

* CLGVLGALC [C L G V L G A L C] | ∞
* CLGVLPGKLC | 1.4
* SLGVLGKLS [diserine non-cyclized negative control, reference compound] | ∞
* CLGVAGKLC [C L G V A G K L C] | ∞

* * *

molecular target: ACA-6501; experiment: Competitive binding peptide ACA ELISA, cardiolipin/β2-GPI-coated plates; set-up: species or system human; conditions: Optimization of Peptide 3G3; inf = no 50% inhibition
Ends that are not written are not given here. ATU = not defined here
observedProperty: with ACA 6501 150 ug/mL

* CLGVGGKLC [C L G V G G K L C] | inf
* CLGVLGALC [C L G V L G A L C] | inf
* CLGGLGKLC [C L G G L G K L C] | inf.
* C L G V L G K L C ATU-Y (CLGVLGKLC; C-terminal ATU-Y extension) | 300 µg/mL
* CLGVPGKLC [C L G V P G K L C] | Inf.
* Y ATU C L G V L G K L C ({Tyr-ATU}-CLGVLGKLC; cysteine pairing not given here; reading uncertain) | 170 µg/mL
* CLGVLGGLC [C L G V L G G L C] | inf
* CLGVAGKLC [C L G V A G K L C] | inf
* CLGVLCKLC [C L G V L C K L C] | 500 µg/mL

* * *

molecular target: ACA-6501; assay: Competitive binding peptide ACA ELISA, cardiolipin/β2-GPI-coated plates; set-up: species or system human; details: cyclic thioether analogs
Numbered stars: 1 amine (or outer) side, 2 acyl side, 3 side chain; on linkers, the order of the positions; unused ones are H or OH. Bridge positions count the residues as written; N and C are the ends. Square brackets hold non-standard residues; d marks the D form. Peptide text beside a SMILES is read from it. Abu(4-yl) = O=C([C@H](CC[*:3])N[*:1])[*:2]; hCys = N[C@@H](CCS)C(=O)O
observedProperty: IC50 Values, ACA-6501 (μg/0.1 mL)

* CC(C)C[C@@H]1NC(=O)[C@H](CCCCN)NC(=O)CNC(=O)[C@H](CC(C)C)NC(=O)[C@H](C(C)C)NC(=O)CNC(=O)[C@H](CC(C)C)NC(=O)[C@@H](N)CCSC[C@@H](C(=O)O)NC1=O [LJP 699] (H-[Abu(4-yl)]LGVLGKLC-OH; thioether 1-9) | 4.6
* CC(C)C[C@@H]1NC(=O)[C@H](CCCCN)NC(=O)CNC(=O)[C@H](CC(C)C)NC(=O)[C@H](C(C)C)NC(=O)CNC(=O)[C@H](CC(C)C)NC(=O)[C@@H](N)CSSC[C@@H](C(=O)O)NC1=O [LJP 690, CLGVLGKLC] (H-CLGVLGKLC-OH; disulfide 1-9) | 10.0
* CC(C)C[C@@H]1NC(=O)[C@H](CCCCN)NC(=O)CNC(=O)[C@H](CC(C)C)NC(=O)[C@H](C(C)C)NC(=O)CNC(=O)[C@H](CC(C)C)NC(=O)[C@@H](N)CCSCC[C@@H](C(=O)O)NC1=O [LJP 703] (H-[hCys]LGVLGKL[Abu(4-yl)]-OH; thioether 1-9; N-terminus and C-terminus assumed) | 8.0
* CC(C)C[C@@H]1NC(=O)[C@H](CCCCN)NC(=O)CNC(=O)[C@H](CC(C)C)NC(=O)[C@H](C(C)C)NC(=O)CNC(=O)[C@H](CC(C)C)NC(=O)[C@@H](N)CSC[C@@H](C(=O)O)NC1=O | 11.0
* CC(C)C[C@@H]1NC(=O)[C@H](CCCCN)NC(=O)CNC(=O)[C@H](CC(C)C)NC(=O)[C@H](C(C)C)NC(=O)CNC(=O)[C@H](CC(C)C)NC(=O)[C@@H](N)CSCC[C@@H](C(=O)O)NC1=O [LJP 702] (H-CLGVLGKL[Abu(4-yl)]-OH; thioether 1-9; N-terminus and C-terminus assumed) | 9.2

* * *

target: ACA-6501; experiment: Competitive binding peptide ACA ELISA, cardiolipin/β2-GPI-coated plates; parameters: species or system human; settings: Optimization of Peptide 3G3; inf = no 50% inhibition
Bridge positions count the residues as written; N and C are the ends. Square brackets hold non-standard residues; d marks the D form. Peptide text beside a SMILES is read from it. Aib = CC(C)(N)C(=O)O; Sar = CNCC(=O)O
observedProperty: with ACA 6501 150 ug/mL (µg/mL)

- CC(C)C[C@@H]1NC(=O)[C@H](CCCCN)NC(=O)C(C)(C)NC(=O)[C@H](CC(C)C)NC(=O)[C@H](C(C)C)NC(=O)CNC(=O)[C@H](CC(C)C)NC(=O)[C@@H](N)CSSC[C@@H](C(=O)O)NC1=O [C L G V L aiB K L C] (H-CLGVL[Aib]KLC-OH; disulfide 1-9): 110
- CC[C@H](C)[C@@H]1NC(=O)[C@@H](N)CSSC[C@@H](C(=O)O)NC(=O)[C@H](CC(C)C)NC(=O)[C@H](CCCCN)NC(=O)CNC(=O)[C@H](CC(C)C)NC(=O)[C@H](C(C)C)NC(=O)CNC1=O [C I G V L G K L C] (H-CIGVLGKLC-OH; disulfide 1-9): 60
- CC(C)C[C@@H]1NC(=O)[C@H](CCCCN)NC(=O)CN(C)C(=O)[C@H](CC(C)C)NC(=O)[C@H](C(C)C)NC(=O)CNC(=O)[C@H](CC(C)C)NC(=O)[C@@H](N)CSSC[C@@H](C(=O)O)NC1=O [C L G V L nG K L C] (H-CLGVL[Sar]KLC-OH; disulfide 1-9): 550
- CC(C)C[C@@H]1NC(=O)[C@H](C(C)C)NC(=O)CNC(=O)[C@H](CC(C)C)NC(=O)[C@@H](N)CSSC[C@@H](C(=O)O)NC(=O)[C@@H](CC(C)C)NC(=O)[C@@H](CCCCN)NC(=O)CNC1=O [C L G V L G dK dL C] (H-CLGVLG[dK][dL]C-OH; disulfide 1-9): 150

* * *

This section presents compounds with their documented with ACA 6501 150 ug/mL values.
target: ACA-6501; assay: Competitive binding peptide ACA ELISA, cardiolipin/β2-GPI-coated plates; design: species or system human; conditions: Optimization of Peptide 3G3; inf = no 50% inhibition
Bridge positions count the residues as written; N and C are the ends. Square brackets hold non-standard residues; d marks the D form. Peptide text beside a SMILES is read from it.
observedProperty: with ACA 6501 150 ug/mL (µg/mL)

- CC(C)C[C@@H]1NC(=O)[C@H](CCCCN)NC(=O)CNC(=O)[C@H](CC(C)C)NC(=O)[C@H](C(C)C)NC(=O)CNC(=O)[C@H](C)NC(=O)[C@@H](N)CSSC[C@@H](C(=O)O)NC1=O [C A G V L G K L C] (H-CAGVLGKLC-OH; disulfide 1-9): 200
- CC(C)C[C@@H]1NC(=O)[C@H](C(C)C)NC(=O)CNC(=O)[C@H](CC(C)C)NC(=O)[C@@H](N)CSSC[C@@H](C(=O)O)NC(=O)[C@@H](CC(C)C)NC(=O)[C@@H](CC(C)C)NC(=O)CNC1=O [C L G V L G dL dL C] (H-CLGVLG[dL][dL]C-OH; disulfide 1-9): 140
